system: HL-60(TB); experiment: Growth inhibition of human HL-60(TB) cells assessed as cell growth at 100 uM incubated for 48 hrs by sulforhodamine B assay relative to control; assay type: functional; conditions: HL-60, 48 h, read-out: Activity
parameter_measured: growth at 100 µM

Recorded results for 4 molecules are shown here.
O=C(Nc1cccc(-n2cc(-c3ccncc3)c(-c3cc(O)cc(Cl)c3)n2)c1)c1ccc(N2CCOCC2)c(C(F)(F)F)c1 -48%
COc1cc(Cl)cc(-c2nn(-c3cccc(NC(=O)Nc4cc(C(F)(F)F)cc(C(F)(F)F)c4)c3)cc2-c2ccncc2)c1 -8%
COc1cc(Cl)cc(-c2nn(-c3cccc(NC(=O)Nc4cccc(C(F)(F)F)c4)c3)cc2-c2ccncc2)c1 -28%
COc1cc(Cl)cc(-c2nn(-c3cccc(NC(=O)Nc4ccc(Cl)c(C(F)(F)F)c4)c3)cc2-c2ccncc2)c1 -22%

// next item, growth at 100 µM requested
Q) growth at 100 µM for COc1cc(Cl)cc(-c2nn(-c3cccc(NC(=O)Nc4ccc(Cl)c(Cl)c4)c3)cc2-c2ccncc2)c1 ?
A) -30%

---

Known growth at 0.1 µM of a selection of molecules
test system: SF-539; experiment: Growth inhibition of human SF539 cells assessed as cell growth at 0.1 uM incubated for 48 hrs by sulforhodamine B assay relative to control; type: functional; settings: SF-539, 48 h, read-out: Activity
Just the number in %, nothing appended.

Worked set:
COc1cc(Cl)cc(-c2nn(-c3cccc(NC(=O)c4cccc(C(F)(F)F)c4)c3)cc2-c2ccncc2)c1 100
O=C(Nc1cccc(-n2cc(-c3ccncc3)c(-c3cc(O)cc(Cl)c3)n2)c1)Nc1ccc(Cl)c(Cl)c1 95
COc1cc(Cl)cc(-c2nn(-c3cccc(NC(=O)Nc4ccc(Cl)c(Cl)c4)c3)cc2-c2ccncc2)c1 92

API: the following record is the query input.
Q) Suppose we examine the molecule O=C(Nc1cccc(-n2cc(-c3ccncc3)c(-c3cc(O)cc(Cl)c3)n2)c1)Nc1ccc(Cl)c(C(F)(F)F)c1 ; what growth at 0.1 µM value has been reported?
A) 95

---

tested on: MDA-MB-435; assay: Growth inhibition of human MDA-MB-435 cells incubated for 48 hrs by sulforhodamine B assay; assay type: functional, cell-based; settings: MDA-MB-435, 48 h, read-out: GI50
parameter_measured: GI50

COc1cc(Cl)cc(-c2nn(-c3cccc(NC(=O)c4ccc(N5CCOCC5)c(C(F)(F)F)c4)c3)cc2-c2ccncc2)c1 4.38 µM
COc1cc(Cl)cc(-c2nn(-c3cccc(NC(=O)Nc4ccc(Cl)c(Cl)c4)c3)cc2-c2ccncc2)c1 2.06 µM
O=C(Nc1cccc(-n2cc(-c3ccncc3)c(-c3cc(O)cc(Cl)c3)n2)c1)Nc1ccc(Cl)c(Cl)c1 1.5 µM

We next turn to a different compound, shown below.
Q) GI50 for O=C(Nc1cccc(-n2cc(-c3ccncc3)c(-c3cc(O)cc(Cl)c3)n2)c1)c1cc(C(F)(F)F)cc(C(F)(F)F)c1 ?
A) 3.18 µM

---

tested on: MCF7; assay: Growth inhibition of human MCF7 cells assessed as cell growth at 10 uM incubated for 48 hrs by sulforhodamine B assay relative to control; assay type: functional; conditions: MCF7, 48 h, read-out: Activity
parameter_measured: growth at 10 µM (%)
Form entry: value (%) — number only.

Would you please look over these solved cases?
COc1cc(Cl)cc(-c2nn(-c3cccc(NC(=O)Nc4cc(C(F)(F)F)cc(C(F)(F)F)c4)c3)cc2-c2ccncc2)c1 3.81
COc1cc(Cl)cc(-c2nn(-c3cccc(NC(=O)Nc4ccc(Cl)c(C(F)(F)F)c4)c3)cc2-c2ccncc2)c1 2.57
O=C(Nc1cccc(-n2cc(-c3ccncc3)c(-c3cc(O)cc(Cl)c3)n2)c1)c1ccc(N2CCOCC2)c(C(F)(F)F)c1 29.7
COc1cc(Cl)cc(-c2nn(-c3cccc(NC(=O)Nc4ccc(Cl)c(Cl)c4)c3)cc2-c2ccncc2)c1 4.66

Q) Returns the measured growth at 10 µM for the input molecule. Input: O=C(Nc1cccc(-n2cc(-c3ccncc3)c(-c3cc(O)cc(Cl)c3)n2)c1)c1cc(C(F)(F)F)cc(C(F)(F)F)c1
A) 23

Q) COc1cc(Cl)cc(-c2nn(-c3cccc(NC(=O)c4ccc(N5CCOCC5)c(C(F)(F)F)c4)c3)cc2-c2ccncc2)c1 ?
A) 45.3
